system: HL-1; test: relative cell viability (CellTiter-Glo) vs DMSO control (% of DMSO control); higher = more viable cells; details: oxygen condition: hypoxia 48 h (1% O2) + reoxygenation 24 h; 40 nM
Counter-ions that a name gives are not always drawn.
The entries below come with measured relative cell viability values attached.
Enter a number only.

Guide cases for relative cell viability, answers given:
[
  {
    "compound": "CCN(CC)CCNC(=O)c1c(C)[nH]c(/C=C2\\C(=O)Nc3ccc(F)cc32)c1C [Sunitinib Malate]",
    "relative cell viability": 106
  },
  {
    "compound": "N[C@@H](CSCCCO)C(=O)O [Fudosteine]",
    "relative cell viability": 105
  },
  {
    "compound": "Nc1nc2ccc(OC(F)(F)F)cc2s1 [Riluzole]",
    "relative cell viability": 102
  },
  {
    "compound": "CN(C)CCCN1c2ccccc2CCc2ccccc21 [Imipramine HCl]",
    "relative cell viability": 98.5
  },
  {
    "compound": "CCN(CC)C(=O)C1(c2ccccc2)CC1CN (stereo not drawn) [Milnacipran HCl]",
    "relative cell viability": 107
  }
]

Form field relative cell viability, entry CNC(=C[N+](=O)[O-])NCCSCc1csc(CN(C)C)n1 [Nizatidine] : 108

Entry N[C@@H](Cc1cc(I)c(Oc2cc(I)c(O)c(I)c2)c(I)c1)C(=O)O [L-Thyroxine] — recorded relative cell viability = 98.5

// relative cell viability value for CC1CC(OC(=O)C(O)c2ccccc2)CC(C)(C)C1 (stereo not drawn) [Cyclandelate] : 104

* * *

tested on: HL-1; assay: relative cell viability (CellTiter-Glo) vs DMSO control (% of DMSO control); higher = more viable cells; settings: oxygen condition: normoxia 72 h; 1000 nM
measure-name: relative cell viability
Just the number, please.

[
  {
    "molecule": "CC[C@@H]1/C=C(\\C)C[C@H](C)C[C@H](OC)[C@H]2O[C@@](O)(C(=O)C(=O)N3CCCC[C@H]3C(=O)O[C@H](/C(C)=C/[C@@H]3CC[C@H](Cl)[C@H](OC)C3)[C@H](C)[C@@H](O)CC1=O)[C@H](C)C[C@@H]2OC",
    "assay-result": 94.7
  },
  {
    "molecule": "C=CC(=O)N1CCC[C@@H](n2nc(-c3ccc(Oc4ccccc4)cc3)c3c(N)ncnc32)C1",
    "assay-result": 90.5
  },
  {
    "molecule": "Cc1nccn1CC1CCc2c(c3ccccc3n2C)C1=O (stereo unspecified)",
    "assay-result": 101
  },
  {
    "molecule": "CC(=O)OCC(=O)[C@@]12OC(C)(C)O[C@@H]1C[C@H]1[C@@H]3C[C@H](F)C4=CC(=O)C=C[C@]4(C)[C@@]3(F)[C@@H](O)C[C@@]12C [Fluocinonide]",
    "assay-result": 89.5
  },
  {
    "molecule": "OCCN1C[C@H](O)[C@@H](O)[C@H](O)[C@H]1CO",
    "assay-result": 106
  }
]

Form: item CCc1ccc(CCOc2ccc(CC3SC(=O)NC3=O)cc2)nc1 (stereo unspecified) [Pioglitazone] ; test system HL-1; relative cell viability: 117

Measured on HL-1, `C[C@H](Cc1cc2c(c(C(N)=O)c1)N(CCCO)CC2)NCCOc1ccccc1OCC(F)(F)F` has a documented relative cell viability of 108

relative cell viability for HL-1 with input CCCCNC(=O)NS(=O)(=O)c1ccc(C)cc1 [Tolbutamide] equals 102

relative cell viability value, target or system HL-1, for CCC1=C(C)CN(C(=O)NCCc2ccc(S(=O)(=O)NC(=O)N[C@H]3CC[C@H](C)CC3)cc2)C1=O [Glimepiride] : 94.7

Measured on HL-1, CCCNC(C)C(=O)Nc1ccccc1C (stereo unspecified) has a documented relative cell viability of 92.3

Item `C#C[C@]1(O)CC[C@H]2[C@@H]3CCC4=CC(=O)CC[C@@H]4[C@H]3CC[C@@]21CC` ; assay system HL-1; relative cell viability reported as 111
